Recorded measurements of IC50, one per entry
- Target desc: GTPase KRas (G12D) and Son of Sevenless Homolog 1 (SOS) (Homo sapiens, UniProt P01116, G12D)
- Sequence (P01116 whole entry G12D): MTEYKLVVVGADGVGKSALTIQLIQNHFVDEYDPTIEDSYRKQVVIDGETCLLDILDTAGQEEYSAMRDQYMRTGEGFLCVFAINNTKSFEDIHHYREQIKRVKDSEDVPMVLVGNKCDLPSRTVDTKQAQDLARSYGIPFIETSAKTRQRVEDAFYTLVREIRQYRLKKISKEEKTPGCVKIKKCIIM
- Sequence (Q07889 whole entry, further chain): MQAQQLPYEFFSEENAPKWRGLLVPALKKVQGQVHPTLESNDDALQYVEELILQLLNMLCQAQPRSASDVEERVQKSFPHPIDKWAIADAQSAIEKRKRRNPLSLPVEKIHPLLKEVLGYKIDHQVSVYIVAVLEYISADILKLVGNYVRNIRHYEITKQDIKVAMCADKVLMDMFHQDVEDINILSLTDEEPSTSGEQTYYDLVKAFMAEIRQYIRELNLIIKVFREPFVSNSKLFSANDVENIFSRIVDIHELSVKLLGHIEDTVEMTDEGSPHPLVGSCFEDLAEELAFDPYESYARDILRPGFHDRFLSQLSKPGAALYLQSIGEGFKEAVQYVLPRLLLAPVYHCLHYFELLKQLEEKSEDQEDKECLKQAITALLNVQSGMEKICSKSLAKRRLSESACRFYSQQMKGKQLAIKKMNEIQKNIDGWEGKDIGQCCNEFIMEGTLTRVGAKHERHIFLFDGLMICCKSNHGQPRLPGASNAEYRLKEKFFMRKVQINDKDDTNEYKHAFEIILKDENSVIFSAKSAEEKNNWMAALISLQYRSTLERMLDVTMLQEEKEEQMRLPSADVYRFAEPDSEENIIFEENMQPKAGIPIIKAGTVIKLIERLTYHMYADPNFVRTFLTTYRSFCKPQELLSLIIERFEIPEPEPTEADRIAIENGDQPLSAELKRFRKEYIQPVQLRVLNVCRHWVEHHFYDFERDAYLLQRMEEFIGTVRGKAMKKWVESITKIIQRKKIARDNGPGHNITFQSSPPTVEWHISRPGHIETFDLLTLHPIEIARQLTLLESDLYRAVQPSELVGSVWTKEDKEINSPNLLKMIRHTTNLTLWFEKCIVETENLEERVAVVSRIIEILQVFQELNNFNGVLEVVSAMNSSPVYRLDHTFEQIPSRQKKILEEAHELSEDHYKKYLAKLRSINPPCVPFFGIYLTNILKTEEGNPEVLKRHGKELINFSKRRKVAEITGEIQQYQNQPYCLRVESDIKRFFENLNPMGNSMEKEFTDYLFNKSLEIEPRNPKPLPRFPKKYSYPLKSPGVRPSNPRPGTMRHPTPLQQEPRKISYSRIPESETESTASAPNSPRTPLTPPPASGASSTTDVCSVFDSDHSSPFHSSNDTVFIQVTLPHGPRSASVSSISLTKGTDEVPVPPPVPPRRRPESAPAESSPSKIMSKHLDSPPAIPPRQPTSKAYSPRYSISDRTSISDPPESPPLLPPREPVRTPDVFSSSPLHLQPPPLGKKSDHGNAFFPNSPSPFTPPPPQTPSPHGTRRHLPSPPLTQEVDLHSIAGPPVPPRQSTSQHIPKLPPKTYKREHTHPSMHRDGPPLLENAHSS
- Procedure details: AlphaScreen Assay
Numbered stars: 1 amine (or outer) side, 2 acyl side, 3 side chain; on linkers, the order of the positions; unused ones are H or OH. Bridge positions count the residues as written; N and C are the ends. Square brackets hold non-standard residues; d marks the D form. Peptide text beside a SMILES is read from it. * marks the point of attachment. ξ: configuration not given here. hPhe(3,5-F2-4-CF3) = N[C@@H](CCc1cc(F)c(C(F)(F)F)c(F)c1)C(=O)O; NMeGly(COCH2cHex) = CN[C@H](C(=O)O)C(=O)CC1CCCCC1; X85 = O=C([C@H](CCc1ccc2ncccc2c1)N[*:1])[*:2]; NMeGly(cPent) = CN[C@H](C(=O)O)C1CCCC1; NMeCha = CN[C@@H](CC1CCCCC1)C(=O)O; ξPro(4,4-F2) = O=C(O)C1CC(F)(F)CN1; NMeChg = CN[C@H](C(=O)O)C1CCCCC1; NMeD = CN[C@@H](CC(=O)O)C(=O)O; NMeL = CN[C@@H](CC(C)C)C(=O)O; NMeA = CN[C@@H](C)C(=O)O; Piperidide = C1CCN(*)CC1; Pyrrolidide = C1CCN(*)C1; Ac5c = NC1(C(=O)O)CCCC1; Aze = O=C(O)[C@@H]1CCN1; Ac4c = NC1(C(=O)O)CCC1; Sar = CNCC(=O)O
I only need the number, in nM, no unit after it.

Query string: For CC[C@H](C)[C@@H]1NC(=O)[C@H](CC(C)C)N(C)C(=O)C[C@@H](C(=O)N2CCCCC2)N(C)C(=O)[C@H](C2CCCC2)N(C)C(=O)C2(CCCC2)NC(=O)[C@@H]2CCCN2C(=O)[C@H](CCc2ccc3ncccc3c2)NC(=O)CN(C)C(=O)[C@H](CC2CCCCC2)N(C)C(=O)[C@@H]2CCN2C(=O)[C@H](C)N(C)C1=O [US20240148821, Compound 2070] ([NMeL]I[NMeA][Aze][NMeCha][Sar][X85]P[Ac5c][NMeGly(cPent)][NMeD]-Piperidide; lactam N-11) , what is its reported IC50?
Result string: 18

// next item, IC50 requested
Query string: For CC[C@H](C)[C@@H]1NC(=O)[C@H](CC(C)C)N(C)C(=O)C[C@@H](C(=O)N2CCCC2)N(C)C(=O)[C@H](C2CCCCC2)N(C)C(=O)C2(CCC2)NC(=O)C2CC(F)(F)CN2C(=O)[C@H](CCc2cc(F)c(C(F)(F)F)c(F)c2)NC(=O)CN(C)C(=O)[C@H](C(=O)CC2CCCCC2)N(C)C(=O)CN(C)C(=O)CN(C)C1=O (some centres not stated) [US20240148821, Compound 1192] ([NMeL]I[Sar][Sar][NMeGly(COCH2cHex)][Sar][hPhe(3,5-F2-4-CF3)][ξPro(4,4-F2)][Ac4c][NMeChg][NMeD]-Pyrrolidide; lactam N-11) , what is its reported IC50?
Result string: 0.39

###

Recorded measurements of IC50, one per entry
- Target desc: GTPase KRas (G12D) and Son of Sevenless Homolog 1 (SOS) (Homo sapiens, UniProt P01116, G12D)
- Procedure details: AlphaScreen Assay
Numbered stars: 1 amine (or outer) side, 2 acyl side, 3 side chain; on linkers, the order of the positions; unused ones are H or OH. Bridge positions count the residues as written; N and C are the ends. Square brackets hold non-standard residues; d marks the D form. Peptide text beside a SMILES is read from it. * marks the point of attachment. ξ: configuration not given here. hPhe(3-Cl-4-CF3) = N[C@@H](CCc1ccc(C(F)(F)F)c(Cl)c1)C(=O)O; hPhe(3-F,4-CF3) = N[C@@H](CCc1ccc(C(F)(F)F)c(F)c1)C(=O)O; NMeGly(COCH2cHex) = CN[C@H](C(=O)O)C(=O)CC1CCCCC1; X54 = COc1cc(CC[C@H](N[*:1])C(=O)[*:2])cc(Cl)c1Cl; Piperazinyl(4-(3-oxetanyl)) = C1OCC1N1CCN(*)CC1; NMeCha = CN[C@@H](CC1CCCCC1)C(=O)O; Hyp = O=C(O)[C@@H]1C[C@@H](O)CN1; NMeChg = CN[C@H](C(=O)O)C1CCCCC1; NMeI = CC[C@H](C)[C@H](NC)C(=O)O; NMeD = CN[C@@H](CC(=O)O)C(=O)O; NMeL = CN[C@@H](CC(C)C)C(=O)O; d(β3hA) = C[C@@H](N)CC(=O)O; NMeA = CN[C@@H](C)C(=O)O; Piperidide = C1CCN(*)CC1; Ac5c = NC1(C(=O)O)CCCC1; ξP = O=C(O)C1CCCN1; Sar = CNCC(=O)O
I only need the number, in nM, no unit after it.

Query string: For C#CCC[C@H]1C(=O)N[C@@H]([C@@H](C)CC)C(=O)N(C)CC(=O)N(C)CC(=O)N(C)[C@@H](CCc2ccc(I)cc2)C(=O)N(C)CC(=O)N[C@@H](CCc2ccc(C(F)(F)F)c(Cl)c2)C(=O)N2CCCC2C(=O)NC2(CCCC2)C(=O)N(C)[C@@H](C2CCCCC2)C(=O)N[C@H](C)CC(=O)N1C (stereo not given in full) , what is its reported IC50?
Result string: 9.5

Query string: For CC(C)C[C@H]1C(=O)N[C@@H](C2CC2)C(=O)N(C)CC(=O)N(C)CC(=O)N(C)[C@@H](CCC2CCCCC2)C(=O)N(C)CC(=O)N[C@@H](CCc2ccc(C(F)(F)F)c(Cl)c2)C(=O)N2CCCC2C(=O)NC2(CCCC2)C(=O)N(C)[C@@H](C(C)C)C(=O)N[C@H](C)CC(=O)N1C (stereo not given in full) , what is its reported IC50?
Result string: 160

Query string: For CC[C@H](C)[C@@H]1NC(=O)[C@H](CC(C)C)N(C)C(=O)C[C@@H](C)NC(=O)[C@H](CC(C)C)N(C)C(=O)C2(CCCC2)NC(=O)[C@@H]2C[C@@H](O)CN2C(=O)[C@H](CCc2ccc(C(F)(F)F)c(F)c2)NC(=O)CN(C)C(=O)[C@H](CC2CCCCC2)N(C)C(=O)CN(C)C(=O)CN(C)C1=O [US20240148821, Compound 1483] (cyclo([Ac5c][NMeL][d(β3hA)][NMeL]I[Sar][Sar][NMeCha][Sar][hPhe(3-F,4-CF3)][Hyp])) , what is its reported IC50?
Result string: 34

Query string: For CC[C@H](C)[C@@H]1NC(=O)[C@H](C)N(C)C(=O)C[C@@H](C(=O)N2CCCCC2)N(C)C(=O)[C@H](C2CCCCC2)N(C)C(=O)C2(CCCC2)NC(=O)C2CCCN2C(=O)[C@H](CCc2cc(Cl)c(Cl)c(OC)c2)NC(=O)CN(C)C(=O)[C@H](C(=O)CC2CCCCC2)N(C)C(=O)CN(C)C(=O)CN(C)C1=O (stereo not given in full) [US20240148821, Compound 2081] ([NMeA]I[Sar][Sar][NMeGly(COCH2cHex)][Sar][X54][ξP][Ac5c][NMeChg][NMeD]-Piperidide; lactam N-11) , what is its reported IC50?
Result string: 2

// next item, IC50 requested
Query string: For CC[C@H](C)[C@@H]1NC(=O)[C@H](CC(C)C)N(C)C(=O)C[C@@H](C(=O)N2CCN(C3COC3)CC2)NC(=O)[C@H]([C@@H](C)CC)N(C)C(=O)C2(CCCC2)NC(=O)C2CCCN2C(=O)[C@H](CCc2ccc(C(F)(F)F)c(Cl)c2)NC(=O)CN(C)C(=O)[C@H](C(=O)CC2CCCCC2)N(C)C(=O)CN(C)C(=O)CN(C)C1=O (stereo partly drawn) [US20240148821, Compound 1191] ([NMeL]I[Sar][Sar][NMeGly(COCH2cHex)][Sar][hPhe(3-Cl-4-CF3)][ξP][Ac5c][NMeI]D-{Piperazinyl(4-(3-oxetanyl))}; lactam N-11) , what is its reported IC50?
Result string: 6.7
